- Tested on: HCT116 cells
- protocol.text: Inhibition of cell proliferation of HCT116 cells (14C-thymidine incorporation, 96 hours)
- Type: cell-based
- details: Homo sapiens, HCT-116, 14C-thymidine incorporation after 96 hours
- Procedure: The products according to the invention have been the subject of pharmacological trials which make it possible to determine their antiproliferative activity. It was determined by measuring the inhibition of cell proliferation of HCT116 cells. […] After 96 hours, the incorporation of ^14C-thymidine is counted in a liquid scintillation counter 1450 Microbeta Wallac Trilux. […]
recorded.metric: IC50 (nM)

Example results:
C[C@@H]1CC[C@H]2[C@@H](C)[C@](OCCS(=O)(=O)CCO[C@@]3(C(F)(F)F)O[C@@H]4O[C@]5(C)CC[C@H]6[C@H](C)CC[C@@H]([C@H]3C)[C@@]46OO5)(C(F)(F)F)O[C@@H]3O[C@@]4(C)CC[C@@H]1[C@]32OO4 [EX3]	21
C[C@@H]1CC[C@H]2[C@@H](C)[C@](OCC[S+]([O-])CCO[C@@]3(C(F)(F)F)O[C@@H]4O[C@]5(C)CC[C@H]6[C@H](C)CC[C@@H]([C@H]3C)[C@@]46OO5)(C(F)(F)F)O[C@@H]3O[C@@]4(C)CC[C@@H]1[C@]32OO4 [EX2]	23

P: C[C@@H]1CC[C@H]2[C@@H](C)[C@](OCCSCCO[C@@]3(C(F)(F)F)O[C@@H]4O[C@]5(C)CC[C@H]6[C@H](C)CC[C@@H]([C@H]3C)[C@@]46OO5)(C(F)(F)F)O[C@@H]3O[C@@]4(C)CC[C@@H]1[C@]32OO4 [EX1]
Q: C[C@@H]1CC[C@H]2[C@@H](C)[C@](OCCN(C)CCO[C@@]3(C(F)(F)F)O[C@@H]4O[C@@]5(C)CC[C@H]6[C@H](C)CC[C@@H]([C@H]3C)[C@@]46OO5)(C(F)(F)F)O[C@@H]3O[C@@]4(C)CC[C@@H]1[C@]32OO4 [EX8]
Compare P and Q by numeric IC50 and name the larger one. Returns: label corresponding to the selected item.
P
